- study_system: influenza virus PA protein (UniProt P15659)
- Type: cell-based
- assay_setup: read-out: PA remaining EC50
quantity_measured: DC50 (µM)

| molecule | units | numeric_value |
| --- | --- | --- |
| C/C(=C\C[C@]1(O)C(=O)c2c(O)cc(C)c3c(O)c(C)c(O)c(c23)C1=O)CC/C=C(\C)CCC(O)[C@@]1(C)CC[C@H](C(C)(C)O)O1 (relative stereo) | µM | 0.88 |
| C/C(=C\CC/C(C)=C/C[C@]1(O)C(=O)c2c(O)cc(C)c3c(O)c(C)c(O)c(c23)C1=O)CC/C=C(\CO)CCC1OC(C)(C)OC1(C)C (stereo partly drawn) | µM | 1.05 |
| CC(C)=CC1C/C(=C/CC/C(C)=C/CC/C(C)=C/C[C@]2(O)C(=O)c3c(O)cc(C)c4c(O)c(C)c(O)c(c34)C2=O)CO1 (stereo partly drawn) | µM | 1.15 |
